FYI, the data here is from the supplement of paper PMC11451515.

- System: NOMO1
- test_summary: cell viability relative to DMSO control; higher = less cytotoxic
- condition: HPLM + 10% dialyzed FBS; 48 h; 5.12 µM
Measured cell viability accompanies every entry in the list below.
measurement_type: cell viability (%)

[[record]]
structure_as_smiles = "O=C(NOCC1CC1)c1ccc(F)c(F)c1Nc1ccc(I)cc1Cl"
endpoint_unit = "%"
recorded_measurement = 52

[[record]]
structure_as_smiles = "Cc1noc(N[S+](=O)([O-])c2ccc(N)cc2)c1C"
endpoint_unit = "%"
recorded_measurement = 96

[[record]]
structure_as_smiles = "Cc1nc2ccc(CN(C)c3ccc(C(=O)N[C@@H](CCC(=O)O)C(=O)O)s3)cc2c(=O)[nH]1"
endpoint_unit = "%"
recorded_measurement = 41.6

[[record]]
structure_as_smiles = "CC(C)CC(=O)Nc1n[nH]c2c1CN(C(=O)C1CCN(C)CC1)C2(C)C"
endpoint_unit = "%"
recorded_measurement = 71.1

[[record]]
structure_as_smiles = "c1coc(CNc2ncnc3nc[nH]c23)c1"
endpoint_unit = "%"
recorded_measurement = 118

[[record]]
structure_as_smiles = "N#Cc1c(N(CC(=O)[O-])CC(=O)[O-])sc(C(=O)[O-])c1CC(=O)[O-].O.O.O.O.O.O.O.[Sr+2].[Sr+2]"
endpoint_unit = "%"
recorded_measurement = 138

[[record]]
structure_as_smiles = "OC(=O)CNC(=O)\\C1=C(/O)C2=CC=CC=C2N(CC3=CC=CC=C3)C1=O"
endpoint_unit = "%"
recorded_measurement = 109

[[record]]
structure_as_smiles = "C[C@@H](Cc1cc2c(c(C(N)=O)c1)N(CCCO)CC2)NCCOc1ccccc1OCC(F)(F)F"
endpoint_unit = "%"
recorded_measurement = 111

[[record]]
structure_as_smiles = "Cn1cnc(N)c2ncnc1-2"
endpoint_unit = "%"
recorded_measurement = 63.5

[[record]]
structure_as_smiles = "CCn1c(C(=O)N(C2CC2)C2CC2)cc2c3c(ncn3C)c(Nc3cc(C)n(C)n3)nc21"
endpoint_unit = "%"
recorded_measurement = 108

